Test system: Calu-3
METHOD_DESCRIPTION: drug sensitivity score (DSS) for viability; higher = more toxic; extreme values may be limits of the assay
STUDY_CONDITIONS: 72 h
Below, each entry is listed alongside its reported drug sensitivity score.
PROPERTY_MEASURED: drug sensitivity score

* CCOC(=O)[C@@](C)(N)Cc1ccc(O)c(O)c1 [methyldopate] | 0
* CN1CCC(Nc2ncc3ncnc(Nc4ccc(F)c(Cl)c4)c3n2)CC1 [BIBX-1382] | 7.6
* Nc1ccncc1 [dalfampridine] | 0
* C/C=C1\NC(=O)[C@H]2CSSCC/C=C/[C@H](CC(=O)N[C@H](C(C)C)C(=O)N2)OC(=O)[C@H](C(C)C)NC1=O [romidepsin] | 37
* Nc1nc(CC(=O)Nc2ccc(CCNC[C@H](O)c3ccccc3)cc2)cs1 [mirabegron] | 0
* CC(C)C[C@@H](NC(=O)[C@H](Cc1ccccc1)NC(=O)CNC(=O)[C@@H](C)NC(=O)[C@@H](N)Cc1ccc(O)cc1)C(=O)O [BW-180C] | 0
* CN1CCC(COc2cnc(-c3cccc(Cn4nc(-c5cccc(C#N)c5)ccc4=O)c3)nc2)CC1 | 0
* COc1ccccc1Oc1c(NS(=O)(=O)c2ccc(C)cn2)nc(-c2ccncc2)nc1OC [SPP301] | 0
* Cc1cc(C(C)(C)C)cc(C)c1CC1=NCCN1 [xylometazoline] | 0
* CCCOc1ccc(Br)cc1-c1cc(-c2ccc(Cl)cc2)[nH]c1-c1ccncc1 | 0
* O=C1NCCc2[nH]c(-c3ccncc3)cc21 | 4.6
* COc1ccc(OC[C@@H]2c3cc(OC)c(OC)cc3CCN2C(=O)c2cccc(Cl)c2)cc1 [CIQ] | 0
* Cc1nc(C)c(C)nc1C [chuanxiongzine] | 0.2
* C=CC(=O)N1CCC[C@@H](n2nc(-c3ccc(Oc4ccccc4)cc3)c3c(N)ncnc32)C1 [ibrutinib] | 0
* CCNC(=O)CCC/C=C\C[C@@H]1[C@@H](/C=C/[C@@H](O)CCc2ccccc2)[C@H](O)C[C@@H]1O [bimatoprost] | 0
* COc1ccc2nc3cc(Cl)ccc3c(Nc3cc(CN4CCCC4)c(O)c(CN4CCCC4)c3)c2n1 [pyronaridine] | 2.5
* O=C1c2c(O)cccc2C([C@@H]2O[C@H](CO)[C@@H](O)[C@H](O)[C@H]2O)c2cc(CO)cc(O)c21 (some centres not stated) [aloin] | 0
* CC(=O)Nc1ccc(OC[C@](C)(O)C(=O)Nc2ccc([N+](=O)[O-])c(C(F)(F)F)c2)cc1 [andarine] | 0
* NC(=O)c1[nH]cnc1O [SM-108] | 0
* COc1cc2c(Oc3ccc(NC(=O)C4(C(=O)Nc5ccc(F)cc5)CC4)cc3F)ccnc2cc1OCCCN1CCOCC1 [foretinib] | 7.8
* c1ccc(C(NCCNC(c2ccccc2)c2ccccc2)c2ccccc2)cc1 [AMN-082] | 0
* CC(C)N(CCNC(=O)CN1CCCC1=O)C(C)C [pramiracetam] | 0
* CSc1ccc([C@H]2CN3CCC[C@H]3c3ccccc32)cc1 (racemic) [McN-5652-(+/-)] | 0
* C=CCN1CC[C@]23c4c5ccc(O)c4O[C@H]2[C@@H](OCCOCCOCCOCCOCCOCCOCCOC)CC[C@@]3(O)[C@H]1C5 [naloxegol] | 0
* COc1ccccc1OCC(O)CO (configuration not stated) [guaifenesin] | 0
* NCCCCCC(=O)O [aminocaproic-acid] | 0
* CCC(Cc1c(I)cc(I)c(N)c1I)C(=O)O (configuration not stated) [iopanic-acid] | 0
* CCCN(C/C=C/I)C1CCc2cccc(O)c2C1 (configuration not stated) [8-hydroxy-PIPAT] | 0
* CC(=O)Nc1nc2c(Oc3cc(-c4ccc(C(F)(F)F)cc4)ncn3)cccc2s1 [AMG-517] | 0
* CCN1CCCC1CNC(=O)c1cc(S(N)(=O)=O)ccc1OC (configuration not stated) [sulpiride] | 0
* O=c1ccn([C@@H]2O[C@H](CO)[C@@H](O)[C@H]2O)c(=O)[nH]1 [uridine] | 0
* NC[C@@](O)(c1ccc(Cl)cc1)c1ccc(-c2cn[nH]c2)cc1 | 0

---

System: Caco-2
METHOD_DESCRIPTION: cell viability relative to DMSO; higher = less toxic
STUDY_CONDITIONS: 72 h; 1000 nM
Below, each entry is listed alongside its reported cell viability.
PROPERTY_MEASURED: cell viability (%)

• CCN(CC)C(=O)[C@@]1(c2ccccc2)C[C@H]1CN = 99.8
• CCCCOc1ccc(C(=O)CCN2CCCCC2)cc1 = 85.7
• Nc1n[nH]c2nc3ccccc3nc12 = 96.2
• COc1cc2c(Oc3ccc4[nH]c(C)cc4c3F)ccnc2cc1OCC1(N)CC1 = 87.4
• O=C1c2c(O)cccc2C([C@@H]2O[C@H](CO)[C@@H](O)[C@H](O)[C@H]2O)c2cc(CO)cc(O)c21 (stereo partly specified) = 93.9
• CCC(=O)OCN1C(=O)C=CC1=O = 94.7
• CCNC(=O)CCC/C=C\C[C@@H]1[C@@H](/C=C/[C@@H](O)CCc2ccccc2)[C@H](O)C[C@@H]1O = 92.2
• CCOCCn1c(C2CCN(CCc3ccc(C(C)(C)C(=O)O)cc3)CC2)nc2ccccc21 = 92.5
• NS(=O)(=O)c1cc2c(cc1Cl)N=C(CSCc1ccccc1)NS2(=O)=O [benzthiazide] = 96.2
• CCn1c2ccccc2c2cc(Nc3ccnc(NCCCN4CCOCC4)n3)ccc21 = 85.5
• O=C1C2C=Nc3ccccc3C2=NN1c1ccc(Cl)cc1 (stereo unspecified) = 93
• O=S(=O)(O)c1cc(O)ccc1O [etamsylate] = 98.8
• O=[N+]([O-])c1ccc(O)c([N+](=O)[O-])c1 = 98.8
• NC(=O)c1[nH]cnc1O = 104
• COc1cc(-n2c(=S)[nH]c3ccccc3c2=O)c(Cl)cc1Cl = 94.4
• CC(=O)NC1N=C(c2ccccc2)c2ccccc2NC1=O (stereo unspecified) = 101

---

System: HepG2
METHOD_DESCRIPTION: cell viability relative to DMSO; higher = less toxic
STUDY_CONDITIONS: 72 h; 10000 nM
Below, each entry is listed alongside its reported cell viability.
PROPERTY_MEASURED: cell viability (%)

• N[C@@H](CC(=O)N1CCn2c(nnc2C(F)(F)F)C1)Cc1n[nH]c2c(F)c(F)ccc12 = 91
• CCC(=O)O[C@@H]1CC(=O)O[C@H](C)C/C=C/C=C/[C@H](OC(C)=O)[C@H](C)C[C@H](CC=O)[C@H](O[C@@H]2O[C@H](C)[C@@H](O[C@H]3C[C@@](C)(OC(C)=O)[C@@H](OC(=O)CC)[C@H](C)O3)[C@H](N(C)C)[C@H]2O)[C@H]1OC = 90
• O[C@H]1CC[C@H](Nc2ncc3nc(Nc4c(F)cc(F)cc4F)n([C@H]4CCOC4)c3n2)CC1 = 89.6
• CC(C)Oc1cccc(-n2c(CCc3c[nH]c4ccc(Br)cc34)nc3ccccc3c2=O)c1 = 92.3

---

System: Caco-2
METHOD_DESCRIPTION: cell viability relative to DMSO; higher = less toxic
STUDY_CONDITIONS: 72 h; 1000 nM
PROPERTY_MEASURED: cell viability (%)

* Cc1ccc(F)cc1C(=O)Nc1ccc(C(=O)N2Cc3cccn3Cc3ccccc32)c(Cl)c1 [lixivaptan] | 88.3
* NC(=O)C1CCCc2c1[nH]c1ccc(Cl)cc21 (stereo not given) [EX-527] | 92
* C[C@@H](O)[C@H]1C(=O)N2C(C(=O)O)=C(S[C@@H]3CN[C@H](CNS(N)(=O)=O)C3)[C@H](C)[C@H]12 [doripenem] | 92.3
* CCC(=O)O[C@@H]1CC(=O)O[C@H](C)C/C=C/C=C/[C@H](O)[C@H](C)C[C@H](CC=O)[C@H](O[C@@H]2O[C@H](C)[C@@H](O[C@H]3C[C@@](C)(O)[C@@H](OC(=O)CC)[C@H](C)O3)[C@H](N(C)C)[C@H]2O)[C@H]1OC [midecamycin] | 91.8
* O=C(Nc1cc(Cl)cc(Cl)c1O)c1c(O)c(Cl)cc(Cl)c1Cl [oxyclozanide] | 91.9

---

System: HepG2
METHOD_DESCRIPTION: drug sensitivity score (DSS) for viability; higher = more toxic; extreme values may be limits of the assay
STUDY_CONDITIONS: 72 h
Below, each entry is listed alongside its reported drug sensitivity score.
PROPERTY_MEASURED: drug sensitivity score

- OC[C@@H](O)[C@@H](O)CO [erythritol]: 0
- COc1c2ccoc2cc2oc(=O)ccc12 [bergapten]: 0
- COC[C@@H](c1ccc(C(F)(F)F)cc1)N1CCN(C2(C)CCN(C(=O)c3c(C)ncnc3C)CC2)C[C@@H]1C [vicriviroc]: 0.2
- CCCCNc1ccc(C(=O)OCCN(C)C)cc1 [tetracaine]: 0
- Cc1nc(C)c(C)nc1C [chuanxiongzine]: 0
- O=C(O)C1=CO[C@@H](O[C@@H]2O[C@H](CO)[C@@H](O)[C@H](O)[C@H]2O)[C@@H]2C(CO)=CC[C@H]12 [Geniposidic acid]: 0
- O=C1C2C=Nc3ccccc3C2=NN1c1ccc(Cl)cc1 (stereo not drawn) [CGS-9896]: 0
- Oc1ccc(Cl)c2cccnc12 [cloxyquin]: 0.3
